tested on: OVCAR-8; test: NCI tumour cell line growth inhibition, 48 h
The source made the active and inactive calls. Rule as the data show it: active = GI50 up to about 1.1 µM and inactive = higher.
Readout type: GI50

Here are 5 compounds together with their reported answers.
{"Compound": "CC(=O)NCC1(c2ccccc2)CCN(CC2COc3ccccc3O2)CC1 (stereo unspecified) [ACOXATRINE]", "GI50": "> 100 µM (inactive)"}
{"Compound": "O=C(O)c1cc2ccccc2c(O)c1O", "GI50": "12.6 µM (inactive)"}
{"Compound": "CCCNC(/C=C/[Si](C)(C)C)CO.CCCNCC(O)/C=C/[Si](C)(C)C (stereo unspecified)", "GI50": "> 100 µM (inactive)"}
{"Compound": "CCOP(=O)(OCC)/C(C#N)=C/c1c[nH]c2ccccc12", "GI50": "> 100 µM (inactive)"}
{"Compound": "COc1ccc(C2=NN(C(=O)COc3ccc(Cl)cc3)C(O)(c3ccc(Cl)cc3)C2)cc1 (stereo unspecified)", "GI50": "> 100 µM (inactive)"}

Query string: Name the recorded GI50 for CC(C#N)Nc1ccc(Oc2ccc(C(C)(C)c3ccc(Oc4ccc(NC(C)C#N)cc4)cc3)cc2)cc1 (stereo unspecified) .
Result string: > 100 µM (inactive)

Query string: Name the recorded GI50 for COc1ccc(C2CCc3nc4nc(N)nc(N)c4cc3C2)cc1 (stereo unspecified) .
Result string: 10.2 µM (inactive)

Query string: Name the recorded GI50 for COC(=O)C1=COC2OC3/C(=C\c4ccc(O)c(OC)c4)C(=O)OC34C=CC1C24 (stereo unspecified) .
Result string: 18.9 µM (inactive)

Query string: Name the recorded GI50 for Cc1cc(S(=O)(=O)Nc2nnc3c4ccccc4cnn23)c(S)cc1Cl .
Result string: > 100 µM (inactive)

Query string: Name the recorded GI50 for O=C(O)c1ccc(C(=O)O)c(C(=O)Nc2ccc3c(c2)C(=O)c2ccccc2-3)c1 .
Result string: > 100 µM (inactive)

Query string: Name the recorded GI50 for CC(=O)N(C(C)=O)n1c(-c2ccccc2)n[nH]c1=O .
Result string: > 100 µM (inactive)
